All figures here come from ChEMBL document CHEMBL3507680.

I'd be grateful if you could share measured cytotoxicity at 70.5 h for these entries.
Experiment: Human HepG2 cell viability assay in 384 well format
Type: toxicity, cell-based
Parameters: dose 125 nL, time 70.5 hour; concentration not given beside the values
Details: HepG2 cells, read-out: Inhibition
A number alone suffices; assume %.

query: Identify the reported cytotoxicity at 70.5 h for the following entry. Cc1cnc(C)c(-c2cc(O)c3c(c2)CN(c2nccs2)CCO3)n1
result: -5.12

query: Identify the reported cytotoxicity at 70.5 h for the following entry. Cn1c(NCC(O)c2ccc(F)cc2)c(C#N)c(=O)n(C)c1=O (configuration not stated)
result: -5.75

query: Identify the reported cytotoxicity at 70.5 h for the following entry. COCC(=O)N1CCC2(CC1)CN(c1cncnc1)C(=O)CO2
result: -12

query: Identify the reported cytotoxicity at 70.5 h for the following entry. O=C(c1ccc(-n2cc(Br)cn2)cc1)N1CCN(c2cnccn2)CC1
result: -10

query: Identify the reported cytotoxicity at 70.5 h for the following entry. CC(C)(C)n1ncc2c(=O)[nH]c(N3CCC4(CCCCC4)C3)nc21
result: -2.75

query: Identify the reported cytotoxicity at 70.5 h for the following entry. Cc1cc(C(=O)N2CCN(C(=O)CCC3CCCCC3)CC2)n(C)n1
result: -18.7

query: Identify the reported cytotoxicity at 70.5 h for the following entry. CC(=O)N1N=C(c2ccco2)OC1C(=O)N(C)CCc1ccccc1 (configuration not stated)
result: 20.4

query: Identify the reported cytotoxicity at 70.5 h for the following entry. COc1cccc(C(CO)NC(=O)NC(C)C)c1 (configuration not stated)
result: 11.8

query: Identify the reported cytotoxicity at 70.5 h for the following entry. O=C(C1CCC2(CCN(c3nncs3)CC2)CO1)N1CCCC1 (configuration not stated)
result: -1.78

query: Identify the reported cytotoxicity at 70.5 h for the following entry. CCN(CC)C(=O)CCNc1cncc(-n2nc(C)cc2C)n1
result: -1.19

query: Identify the reported cytotoxicity at 70.5 h for the following entry. CC(=O)N1CCC(NC(=O)c2cc(S(N)(=O)=O)ccc2C)CC1
result: -3.13

query: Identify the reported cytotoxicity at 70.5 h for the following entry. COc1ccc(C2=Nn3c(CN)nnc3-c3ccccc3C2)cc1
result: -18.7

query: Identify the reported cytotoxicity at 70.5 h for the following entry. CS(=O)(=O)N1CCC(c2cncc(Cl)n2)CC1
result: 27.2

query: Identify the reported cytotoxicity at 70.5 h for the following entry. CC(C)NC(=O)N[C@H]1C[C@@H](c2nc(-c3ccc(F)cc3)no2)N(C)C1
result: -4.13

query: Identify the reported cytotoxicity at 70.5 h for the following entry. COc1c(Br)cccc1CCNC(=O)c1ccon1
result: -10.8

query: Identify the reported cytotoxicity at 70.5 h for the following entry. CCOCC1c2c(cnn2C)CCN1C(=O)c1ccncn1 (configuration not stated)
result: -14.6

query: Identify the reported cytotoxicity at 70.5 h for the following entry. O=C(NCCN1CCOCC1)c1scnc1Cl
result: -15.1

query: Identify the reported cytotoxicity at 70.5 h for the following entry. Cc1cnn(CCNCC(=O)Nc2ccc(Br)cn2)c1
result: -4.64

query: Identify the reported cytotoxicity at 70.5 h for the following entry. CSc1ccc(CNC(=O)Cc2c(C)n[nH]c2C)cc1
result: -6.16

query: Identify the reported cytotoxicity at 70.5 h for the following entry. COc1ccc(Cl)cc1CN(C)C(=O)CN1C(=O)OC[C@@H]1C(C)C
result: -6.97

query: Identify the reported cytotoxicity at 70.5 h for the following entry. Cc1n[nH]c(C)c1CCC(=O)N1CCC(O)(CN2CCN(C)CC2)C1 (configuration not stated)
result: -6.92

query: Identify the reported cytotoxicity at 70.5 h for the following entry. N#CCCN(C(=O)CCc1cscn1)c1ccc2c(c1)OCCO2
result: 16.5

query: Identify the reported cytotoxicity at 70.5 h for the following entry. CC(C)(Oc1ccc2c(c1)CCCC2=O)C(=O)NCc1ccco1
result: -2.8

query: Identify the reported cytotoxicity at 70.5 h for the following entry. CC(C)CN1C[C@H]2N(c3ncccn3)CCC[C@@]2(C(=O)NCC2CC2)C1
result: -3.44

query: Identify the reported cytotoxicity at 70.5 h for the following entry. CC(C)(C)c1nc(CN2CCN(C(=O)c3cnccn3)CC2)cs1
result: -1.47

query: Identify the reported cytotoxicity at 70.5 h for the following entry. COc1ccc(OC)c(CCNC(=O)NC(C)Cn2ccnc2)c1 (configuration not stated)
result: 22

query: Identify the reported cytotoxicity at 70.5 h for the following entry. COCCN(CCC#N)Cn1cc(Cl)cn1
result: -2.01

query: Identify the reported cytotoxicity at 70.5 h for the following entry. CC(C)(C)OC(=O)N1CCCN1C(=O)c1cccc(F)c1F
result: -5.84

query: Identify the reported cytotoxicity at 70.5 h for the following entry. CCc1nnc(CN(C)CC2CCCCC2)o1
result: -0.472

query: Identify the reported cytotoxicity at 70.5 h for the following entry. CCOCC1CCN(C(=O)C(c2ccc(F)cc2)N(C)C)CC1 (configuration not stated)
result: -8

query: Identify the reported cytotoxicity at 70.5 h for the following entry. CC(c1nc(C2CC2)no1)N1CCN(Cc2cccc(F)c2F)CC1 (configuration not stated)
result: -10.5

query: Identify the reported cytotoxicity at 70.5 h for the following entry. COc1ccc2c(c1)OCC(Cc1cnc(N)c(C)c1)C2 (configuration not stated)
result: 1.49

query: Identify the reported cytotoxicity at 70.5 h for the following entry. CC(C)c1nc(C(=O)N2CCOCC2CC(=O)c2ccco2)c[nH]1 (configuration not stated)
result: -14.6

query: Identify the reported cytotoxicity at 70.5 h for the following entry. Cc1ccc(Oc2ncccc2C(=O)N(C)CCCN(C)C)c(C)c1
result: -5.42

query: Identify the reported cytotoxicity at 70.5 h for the following entry. CCN1CCN(C(=O)c2ccc3c(c2)CCCN3)[C@H]2CS(=O)(=O)C[C@H]21
result: -5.32

query: Identify the reported cytotoxicity at 70.5 h for the following entry. CS(=O)(=O)NCCC(=O)N1CCC(Cc2ccc(CO)cc2)C1 (configuration not stated)
result: 1.14

query: Identify the reported cytotoxicity at 70.5 h for the following entry. COc1ccc(CN2C[C@@H]3CN(Cc4ccoc4)C[C@@H]3C2=O)cc1
result: -6.31

query: Identify the reported cytotoxicity at 70.5 h for the following entry. O=C(c1cc(F)cc(F)c1)N1CCC(O)(C(F)(F)F)CC1
result: 19.9

query: Identify the reported cytotoxicity at 70.5 h for the following entry. Cc1nnc2n1CCN(CCS(=O)(=O)c1ccc(Cl)cc1)C2
result: 2.97

query: Identify the reported cytotoxicity at 70.5 h for the following entry. CS(=O)(=O)c1ccccc1-n1cc(NC(=O)CC2C=CCC2)cn1 (configuration not stated)
result: -6.16

query: Identify the reported cytotoxicity at 70.5 h for the following entry. CN(Cc1noc(C2CC2)n1)CC1CCN(CCO)CC1
result: 14.4

query: Identify the reported cytotoxicity at 70.5 h for the following entry. Cc1cc(NC2CC3(CCN(Cc4cscn4)C3)C2)ncn1 (configuration not stated)
result: -6.43

query: Identify the reported cytotoxicity at 70.5 h for the following entry. O=C(Nc1nccs1)NC1CCN(CC2CCCC2)CC1
result: -13.1

query: Identify the reported cytotoxicity at 70.5 h for the following entry. O=C(CN1CCOCC1)Nc1ccc(C(F)(F)F)cc1Cl
result: 14.6

query: Identify the reported cytotoxicity at 70.5 h for the following entry. CN(CCn1nc2ccccn2c1=O)CC(=O)N1CCCC1
result: 4.26

query: Identify the reported cytotoxicity at 70.5 h for the following entry. CCN1CC(C(=O)N(C)Cc2ccon2)CC1=O (configuration not stated)
result: 25.3

query: Identify the reported cytotoxicity at 70.5 h for the following entry. O=C(COc1ccccc1F)NCC(O)(c1ccccc1)C1CC1 (configuration not stated)
result: -13.8
